# assay_target: Voltage-gated inwardly rectifying potassium channel KCNH2 (Homo sapiens)
# Sequence (Q12809 whole entry): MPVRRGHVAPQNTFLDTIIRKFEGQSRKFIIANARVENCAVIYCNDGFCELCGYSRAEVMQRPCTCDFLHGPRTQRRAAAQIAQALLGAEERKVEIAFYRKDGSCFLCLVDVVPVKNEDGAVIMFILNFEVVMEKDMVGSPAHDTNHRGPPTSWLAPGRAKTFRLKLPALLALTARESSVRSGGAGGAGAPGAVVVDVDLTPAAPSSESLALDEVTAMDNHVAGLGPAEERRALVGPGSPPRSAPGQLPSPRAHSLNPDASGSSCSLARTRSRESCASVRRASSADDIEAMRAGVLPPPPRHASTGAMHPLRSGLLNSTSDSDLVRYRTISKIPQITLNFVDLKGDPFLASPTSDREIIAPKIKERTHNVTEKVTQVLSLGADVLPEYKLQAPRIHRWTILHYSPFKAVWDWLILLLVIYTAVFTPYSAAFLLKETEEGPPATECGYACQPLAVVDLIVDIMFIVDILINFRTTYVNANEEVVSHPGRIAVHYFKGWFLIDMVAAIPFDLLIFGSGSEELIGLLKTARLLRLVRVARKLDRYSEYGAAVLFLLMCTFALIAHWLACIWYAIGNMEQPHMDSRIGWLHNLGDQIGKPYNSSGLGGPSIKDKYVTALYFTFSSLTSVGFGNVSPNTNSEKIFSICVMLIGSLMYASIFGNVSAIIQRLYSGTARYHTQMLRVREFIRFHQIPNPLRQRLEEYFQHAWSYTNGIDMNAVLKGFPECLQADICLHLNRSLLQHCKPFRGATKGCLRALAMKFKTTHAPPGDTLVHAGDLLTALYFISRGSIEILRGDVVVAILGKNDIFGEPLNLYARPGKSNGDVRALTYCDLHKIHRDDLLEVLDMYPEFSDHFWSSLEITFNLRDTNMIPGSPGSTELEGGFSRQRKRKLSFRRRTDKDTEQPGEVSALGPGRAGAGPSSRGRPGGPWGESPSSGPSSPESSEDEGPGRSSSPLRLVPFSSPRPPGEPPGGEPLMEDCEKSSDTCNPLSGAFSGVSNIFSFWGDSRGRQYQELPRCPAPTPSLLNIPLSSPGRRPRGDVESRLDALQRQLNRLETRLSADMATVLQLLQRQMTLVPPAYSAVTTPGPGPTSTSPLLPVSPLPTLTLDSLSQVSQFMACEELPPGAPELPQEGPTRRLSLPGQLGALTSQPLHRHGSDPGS
# assay_protocol: Inhibition of hERG expressed in HEK293 cells at -80 mV holding potential by automated patch-clamp method
quantity_name: IC50

Please review the entries below; each comes with its answer.
chemical_structure	quantity_name	observed_result
C[C@@]1(c2cc(NC(=O)c3ccc(F)cn3)ccc2F)Cn2c(C#N)cnc2C(N)=N1	IC50	> 10 µM
COc1cnc(C(=O)Nc2ccc(F)c([C@]3(C)Cn4c(C#N)cnc4C(N)=N3)c2)cn1	IC50	> 10 µM

// switching to the query compound
Reported IC50 for `C[C@@]1(c2cc(NC(=O)c3ccc(Cl)cn3)ccc2F)Cn2c(C#N)cnc2C(N)=N1` : what is it?
> 10 µM
